B1: CAMK2D (parent)
chain: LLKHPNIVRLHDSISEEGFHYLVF

Variants of: B1
assay_details: protein stability index of a GFP-peptide fusion (GPS, HEK-293T) (PSI 1-6); higher = more stable;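 note: lentivirally expressed fusions sorted by FACS into six bins by GFP to DsRed ratio, PSI derived from sequencing read proportions per bin multiplied by bin number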
cond: c terminus: a fixed tail appended
Please use Met whenever protein stability index is not below 2, and Not met whenever it is.

Illustrative cases are given below, each with its answer.
D12K ... Met
E17P ... Met
V23Y ... Not met
Y21W ... Met
E17M ... Met
E17V ... Met
I14C ... Met
F19H ... Not met
L2C ... Met
R9W ... Met

Threshold query (protein stability index >= 2) on R9Q
Met

Is the recorded value of protein stability index equal to or greater than 2 for this variant? I7E
Met

Is it the case that I7H has protein stability index reaching or exceeding 2?
Met

API: above_or_equal(metric=protein stability index, cutoff=2) for item D12F
Met

Check if protein stability index >= 2 (inclusive). Item: I7N
Met
